Just for reference, the nanobody polyreactivity screen of Harvey et al. (2022) is where these values come from.

- PROCEDURE_DETAILS: yeast display, Sf9 membrane polyspecificity reagent, FACS + sequencing; frameworks hold sequencing errors
EXPERIMENTAL_READOUT: polyreactivity (PSR sort gate)

Recorded polyreactivity (PSR sort gate), per entry:
Q: Param item = "QVQLVESGGGLVQAGGSLRLSCAASGIIFFKYAMGWYRQAPGKERQLVAAITSGGSTYYADSVKGRFTISRDNEKNTVYLQMNSLKPVDTAVYYCAAAGGRFIRYGYWGQGTQVTVSS" ; retrieve measured polyreactivity (PSR sort gate).
Ans: high polyreactivity

Q: And for "QVQLEDSGGVLVQAGGSLRLSCAASGFIYRFYPMGWYRKAPGKERELVAGISSSGGSTYYADSVKGRFTISRDYAKNTVYLQMNSLKPEDTAVFYCNAKRSDQSYKTFNYWGQGTQVTVSS" ?
Ans: low polyreactivity

Q: And for "QVQLVESGRGLVQAGGSLRLSCAASGRIFVHYAMGWYRQAPGKERELVAAITYSGDSTYYADSVKGRFTISRDNAKNTVYLQMNSLKPEDTAVYYCNAVVRRVLFDYDYWGQGTQVTVSS" ?
Ans: high polyreactivity

Q: And for "QVQLVESGGGLVQAGGSLRLSCAASGYIFGSYAMGWYSQAPGKERELVATISYRAGRTYYADSVKGRFTISRDNAKNTVDLQMNSLTPEDTAVYYCAADLVIYLEYDYWGQGTQVTVSS" ?
Ans: low polyreactivity

Continuing:
Q: Param item = "QVQLVESGGGLVQAGGSLRLSCAASGIIFGLNDMGWYRQAPGKERELVADITYSGGSTYYADSVKGRFTISRDNAKNTVYLQMNSLKPEDTAVYYCAADEVSFWGYIYDYWGQGTQVTVSS" ; retrieve measured polyreactivity (PSR sort gate).
Ans: high polyreactivity
